# Procedure details: qHTS assay to identify small molecule agonists of the farnesoid-X-receptor (FXR) signaling pathway - cell viability counter screen (AID 743218); note: nearly all actives have a fitted effect of over 45% in size
# Measurement setup: FXR-bla HEK293T viability, CellTiter-Glo luminescence, 16 h; series mostly up to 62.6 µM
Records with an inconclusive call do not appear. Active and inactive are the calls of the source. Calls come from the whole dose curve; as a rule, active = well fitted cell-killing curve with a large enough effect in the repeat runs; inconclusive = weak or mixed curves, or effect the other way; inactive = no such curve, though single readings can be large or run the other way.
Possible outcomes: active, inactive

>>> assigned_label("COc1cc(Nc2c(C#N)cnc3cc(OCCCN4CCN(C)CC4)c(OC)cc23)c(Cl)cc1Cl")
"active"
>>> assigned_label("N#CCCN(CCO)CCO")
"inactive"
>>> assigned_label("CC[N+](CC)(CCNC(=O)C(=O)NCC[N+](CC)(CC)Cc1ccccc1Cl)Cc1ccccc1Cl")
"inactive"
>>> assigned_label("CCCCN(CCN(CCCC)C(=O)N1CCOCC1)C(=O)N1CCOCC1")
"inactive"
>>> assigned_label("C=CC(=O)OCC1CC2CC1C1CCC(COC(=O)C=C)C21 (configuration not stated)")
"inactive"
>>> assigned_label("CCCCCC#CC(=O)OC")
"inactive"
>>> assigned_label("CCC1(CO)COCOC1")
"inactive"
>>> assigned_label("Cc1ccc(OC(=O)c2ccccc2O)cc1")
"inactive"
>>> assigned_label("Cc1cc(C)c(N)cc1C")
"inactive"
>>> assigned_label("Cc1ccc2c(Br)cc(Br)c(O)c2n1")
"inactive"
>>> assigned_label("Cc1ccc(CO)cc1")
"inactive"
>>> assigned_label("C/C=C/C=C/C=O")
"inactive"
>>> assigned_label("CCCC(C(=O)OCCN(CC)CC)(c1ccccc1)c1ccccc1")
"inactive"
>>> assigned_label("C=COCC(C)C")
"inactive"
>>> assigned_label("CCC1CO1 (configuration not stated)")
"inactive"
>>> assigned_label("Oc1cccc(Nc2ccccc2)c1")
"inactive"
>>> assigned_label("CC(C)C(O)(c1ccc(OC(F)(F)F)cc1)c1cncnc1 (configuration not stated)")
"inactive"
>>> assigned_label("O=C(O)CCc1nc(-c2ccccc2)c(-c2ccccc2)o1")
"inactive"
>>> assigned_label("C1C[C@@H]2[C@H]3CC[C@H](C3)[C@@H]2C1")
"inactive"
>>> assigned_label("O=C1c2ccccc2C(=O)c2c(O)c(O)cc(O)c21")
"inactive"
>>> assigned_label("O=C(Cn1ccnc1[N+](=O)[O-])NCCO")
"inactive"
>>> assigned_label("Cc1ccccc1S")
"inactive"
>>> assigned_label("CCOC(=O)OC(C)OC(=O)[C@@H]1N2C(=O)[C@@H](NC(=O)[C@H](N)c3ccccc3)[C@H]2SC1(C)C (some centres not stated)")
"inactive"
>>> assigned_label("CCCCCCCCCCCCCCN(CCO)CCO")
"active"
>>> assigned_label("O=C(/C=C/c1ccc(O)c(O)c1)O[C@@H]1C[C@@](OC(=O)/C=C/c2ccc(O)c(O)c2)(C(=O)O)C[C@@H](O)[C@@H]1O")
"inactive"
>>> assigned_label("Brc1cc2ccccc2c2ccccc12")
"inactive"
>>> assigned_label("Cc1cc2c(OCC(CNC(C)(C)C)OC(=O)c3ccccc3)cccc2[nH]1 (configuration not stated)")
"inactive"

====

# Procedure details: A CellTox Green Cytotoxicity Assay to monitor cytotoxicity in HEK293 cells - 40 hour (AID 1224871); note: nearly all actives have a fitted effect of over 45% in size
# Measurement setup: CellTox Green fluorescence; series mostly up to 76.8 µM
Records with an inconclusive call do not appear. Activity calls are given as the source filed them. Calls come from the whole dose curve; as a rule, active = well fitted activation curve with a large enough effect in the repeat runs; inconclusive = weak or mixed curves; inactive = flat fitted curve, though single readings scatter.
Possible outcomes: active, inactive

>>> assigned_label("COC(=O)c1nc(Cl)c(Cl)nc1N")
"active"
>>> assigned_label("O=C1c2ccccc2C(=O)C1c1nc2ccccc2c(Br)c1O")
"inactive"
>>> assigned_label("CC=C(Cl)Cl")
"inactive"
>>> assigned_label("Nc1ccc(N=Nc2ccccc2)c(N)c1")
"inactive"
>>> assigned_label("C[C@H]1C[C@H](O)c2ccsc2S1(=O)=O")
"inactive"
>>> assigned_label("C=C1c2cccc(O)c2C(O)=C2C(=O)[C@]3(O)C(O)=C(C(N)=O)C(=O)[C@@H](N(C)C)[C@@H]3[C@@H](O)[C@H]12")
"inactive"
>>> assigned_label("CCOc1ccc(Cc2nccc3cc(OCC)c(OCC)cc23)cc1OCC")
"inactive"
>>> assigned_label("CN1C(=O)c2ccccc2C1=O")
"inactive"
>>> assigned_label("O=C1c2ccccc2C(=O)C1c1ccc(Br)cc1")
"inactive"
>>> assigned_label("CCCC(=O)C(=O)O")
"inactive"
>>> assigned_label("O=C(O)c1ccc(OCCCOc2ccc(C(=O)O)cc2)cc1")
"inactive"
>>> assigned_label("CC(C)(C)C(=O)C(=O)O")
"inactive"
>>> assigned_label("NCCNCCO")
"inactive"
>>> assigned_label("OCCOCC#CCOCCO")
"inactive"
>>> assigned_label("CCC1NC(=O)c2cc(S(N)(=O)=O)c(Cl)cc2N1 (configuration not stated)")
"inactive"
>>> assigned_label("CCOc1cccc(-n2cc(C(=O)N3CCN(c4cc(C(=O)O)c5ccccc5c4)CC3)nc2-c2ccc(C)cc2)c1")
"inactive"
>>> assigned_label("Cc1ccccc1S")
"inactive"
>>> assigned_label("O[C@@H]1CO[C@H]2[C@@H]1OC[C@@H]2O")
"inactive"
>>> assigned_label("CCOC(=O)c1ccc(C#Cc2ccc3c(c2)C(C)(C)CCS3)nc1")
"inactive"
>>> assigned_label("Cc1cc(=O)c2c(O)c3c(O)cc(=O)c4c3c3c(cc(O)c1c23)C(C)(C)C=4O")
"active"
>>> assigned_label("CCC(=O)OC")
"inactive"
>>> assigned_label("CCOC(=O)c1ccc(O)c(O)c1")
"inactive"
>>> assigned_label("CCOC(=O)/C=C/C(=O)OCC")
"inactive"
>>> assigned_label("CC(C)=CCC/C(C)=C/CC/C(C)=C/C(=O)OCC(=O)[C@@]1(O)CC[C@H]2[C@@H]3CCC4=CC(=O)C=C[C@]4(C)[C@H]3[C@@H](O)C[C@@]21C")
"inactive"
>>> assigned_label("Cc1cscn1")
"inactive"
>>> assigned_label("CN1CCCN=C1COC(=O)C(O)(c1ccccc1)C1CCCCC1 (configuration not stated)")
"inactive"
>>> assigned_label("CC1(C)S[C@@H]2[C@H](NC(=O)C(c3ccccc3)S(=O)(=O)O)C(=O)N2[C@H]1C(=O)O (some centres not stated)")
"inactive"

====

# Procedure details: qHTS assay for small molecule agonists of the p53 signaling pathway - cell viability (AID 651633); note: nearly all actives have a fitted effect of over 30% in size
# Measurement setup: p53RE-bla HCT-116 viability, ATP luminescence, 16 h; series mostly up to 83.3 µM
Records with an inconclusive call do not appear. Activity calls are given as the source filed them. Calls come from the whole dose curve.
Possible outcomes: active, inactive

>>> assigned_label("CCc1ccccc1")
"inactive"
>>> assigned_label("COc1cc(N)c(Cl)cc1C(=O)NC1CCN(CCCOc2ccc(F)cc2)CC1OC (centres undefined)")
"inactive"
>>> assigned_label("O=C(Nc1cccc2c(=O)cc(-c3nn[nH]n3)oc12)c1ccc(OCCCCc2ccccc2)cc1")
"inactive"
>>> assigned_label("CCCCC(CC)CN (centres undefined)")
"inactive"
>>> assigned_label("COc1ccccc1NC(=O)c1cc2ccccc2cc1O")
"active"
>>> assigned_label("O=C(Cn1ccnc1[N+](=O)[O-])NCCO")
"inactive"
>>> assigned_label("CCOC(=O)C1=C(C)NC(C)=C(C(=O)OC)C1c1cccc(Cl)c1Cl (centres undefined)")
"inactive"
>>> assigned_label("C[C@@H]1CC(=O)NN=C1c1ccc(NN=C(C#N)C#N)cc1")
"active"
>>> assigned_label("CCCCCCC(C)(C)C(=O)O")
"inactive"
>>> assigned_label("CCC(C)COC(=O)CC(C)C (centres undefined)")
"inactive"
>>> assigned_label("Oc1cccc(Nc2ccccc2)c1")
"inactive"
>>> assigned_label("Cc1cscn1")
"inactive"
>>> assigned_label("c1ccc2c(c1)CCc1ccccc1N2")
"inactive"
>>> assigned_label("Cc1cc2c(OCC(CNC(C)(C)C)OC(=O)c3ccccc3)cccc2[nH]1 (centres undefined)")
"inactive"

====

# Procedure details: qHTS assay to identify small molecule antagonists of the retinoid acid receptor (RAR) signaling pathway - cell viability counter screen (AID 1159551); note: nearly all actives have a fitted effect of over 35% in size
# Measurement setup: C3RL4 cells viability, ATP luminescence (CellTiter-Glo), 6 h; series mostly up to 92.4 µM
Inconclusive results are not listed. Active and inactive are the calls of the source. Calls follow the shape of the dose curve; as a rule, active = well fitted cell-killing curve with a large enough effect in the repeat runs; inconclusive = weak or mixed curves, or effect the other way; inactive = flat fitted curve, though single readings scatter.
Possible outcomes: active, inactive

>>> assigned_label("C/C=C/C=C/C=O")
"inactive"
>>> assigned_label("CC(=O)OCCN(CCOC(C)=O)c1ccc(N=Nc2ccc([N+](=O)[O-])cc2C#N)cc1")
"active"
>>> assigned_label("CN1CC(=O)N2[C@H](c3ccc4c(c3)OCO4)c3[nH]c4ccccc4c3C[C@@H]2C1=O")
"inactive"
>>> assigned_label("CC[N+](CC)(CCNC(=O)C(=O)NCC[N+](CC)(CC)Cc1ccccc1Cl)Cc1ccccc1Cl")
"inactive"
>>> assigned_label("CC(C)(c1ccccc1)c1ccccc1")
"inactive"
>>> assigned_label("CCC(C)COC(=O)CC(C)C (stereo unspecified)")
"inactive"
